FYI, the data here is from patent US10654939.

- EXPERIMENTAL SYSTEM: T1, recombinant human CD40 (ECD)-his (human, UniProt P25942 21-193)
- T1 construct: Bought protein; also called hCD40(ECD)-his; TNFRSF5
- T1 sequence (P25942 21-193): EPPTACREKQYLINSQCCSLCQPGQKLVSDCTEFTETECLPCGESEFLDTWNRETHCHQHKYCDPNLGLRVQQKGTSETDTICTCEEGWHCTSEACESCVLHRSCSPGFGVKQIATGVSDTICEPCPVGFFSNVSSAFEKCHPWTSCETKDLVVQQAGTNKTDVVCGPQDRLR
- PROTOCOL SUMMARY: SPR (Biacore 8K), hCD40(ECD)-his coupled to chip, antibody injected
EXPERIMENTAL READOUT: koff (s⁻¹)
Report the figure in s⁻¹ without appending any unit label.

[[record]]
binder = "7B4-VH0VL0 (antibody, human IgG2, kappa, V domains shown, Humanized, human IgG2/kappa) VH: QVQLQESGPGLVKPSDTLSLTCAVSGYSITTNYYWNWIRQPPGKGLEWIGYIKYDGSNNYNPSLKNRVTMSVDTSKNQFSLKLSSVTAVDTAVYYCARLDYWGQGTLVTVSS VL: DVVMTQSPLSLPVTLGQPASISCRSSQSLENSNGNTFLNWFQQRPGQSPRRLIYKVSNRFSGVPDRFSGSGSGTDFTLKISRVEAEDVGVYYCLQVTHVPFTFGQGTKLEIKR"
experimental_readout = "koff"
unit_spec = "s⁻¹"
recorded_value = 0.0068


We next turn to a different binder, shown below.
**Query** Given the entry 13A2-VH3VL2 (antibody, human IgG2, kappa, V domains shown, Humanized, human IgG2/kappa) VH: QVQLQESGPGLVKPSDTLSLTCAVSGYSITTNYYWNWIRQPPGNKLEWMGYINYDGSNNYNPSLKNRITISVDTSKNQFSLKLSSVTAVDTAVYYCARLDYWGQGTLVTVSS VL: DVVLTQSPLSLPVTLGQPASISCRSSQSLENSNGNTFLNWFQQRPGQSPRLLIYKVSNRFSGVPDRFSGSGSGTDFTLKISRVEAEDVGVYYCLQVTHVPFTFGQGTKLEIKR , report its measured koff.
**Result** 0.00242
